Target: T1, human CD200R1 expressed on cells (Jurkat-CD200R1, U937-CD200R1, HH cells) (human, UniProt Q8TD46 25-348)
T1 construct: whole, on cells; also called HH (CRL-2105); cell surface-expressed CD200R1
T1 sequence (looked up): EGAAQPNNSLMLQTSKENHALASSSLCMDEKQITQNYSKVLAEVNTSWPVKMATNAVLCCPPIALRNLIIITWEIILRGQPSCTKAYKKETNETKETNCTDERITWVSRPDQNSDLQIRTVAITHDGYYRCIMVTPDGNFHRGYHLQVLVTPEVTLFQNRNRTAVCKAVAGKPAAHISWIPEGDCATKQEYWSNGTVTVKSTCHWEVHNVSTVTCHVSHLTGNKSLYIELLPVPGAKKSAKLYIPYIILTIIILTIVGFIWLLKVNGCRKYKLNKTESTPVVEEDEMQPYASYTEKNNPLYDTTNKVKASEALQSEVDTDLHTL
Experiment: flow cytometry on Jurkat-CD200R1 and HH cells, 500 nM antibody in IgG1 form
PROPERTY NAME: MFI normalized to P001017 (chimeric OX108), %

Problem: // lookup MFI normalized to P001017 (chimeric OX108), % for P001009 (IgG) (antibody, V domains shown, also called P001009 WT; P001009 wt) VH: EVQLLESGGGLVQPGGSLRLSCAASGFTFSSYDMSWVRQAPGKGLEWVSWISHGGGSIYYADSVKGRFTISRDNSKNTLYLQMNSLRAEDTAVYYCARDAPAYSAPLFDYWGQGTLVTVSS VL: QSVLTQPPSASGTPGQRVTISCSGSSSNIGNNAVNWYQQLPGTAPKLLIYYDSNRPSGVPDRFSGSKSGTSASLAISGLRSEDEADYYCAAWDDSLSGYVFGGGTKLTVL
Result: > 50%

The values you see were collected from patent US20260263521A1.
